Origin of values: patent US8507473B2

target: GPR81 (Homo sapiens, UniProt Q9BXC0); construct: expressed in transfected cells; host or cells: CHO-K1 (ATCC CCL-61), recombinant, stably transfected; experiment: GPR81 [35S]GTPγS binding assay; type: biochemical; settings: membranes of CHO-K1 cells stably transfected with GPR81
Sequence (Q9BXC0 whole entry): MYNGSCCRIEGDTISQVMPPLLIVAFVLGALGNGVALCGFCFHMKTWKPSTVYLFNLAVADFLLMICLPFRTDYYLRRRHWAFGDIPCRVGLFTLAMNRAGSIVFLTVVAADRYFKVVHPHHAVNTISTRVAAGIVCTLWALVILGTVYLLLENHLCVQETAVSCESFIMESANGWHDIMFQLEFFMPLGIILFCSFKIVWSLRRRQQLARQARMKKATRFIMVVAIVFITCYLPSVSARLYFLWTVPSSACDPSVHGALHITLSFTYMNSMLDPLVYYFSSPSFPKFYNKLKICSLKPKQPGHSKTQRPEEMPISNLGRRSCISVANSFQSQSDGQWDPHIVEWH
pEC50: −log10 of the molar value.
quantity-kind: pEC50

* Oc1ccc2nc(Cl)n(-c3ccccc3C3CC3)c2n1 | 7.09
* Oc1ccc2ncn(C34CC5CC(CC(C5)C3)C4)c2n1 | 7.52
* Oc1ccc2ncn(-c3ccc(Cl)cc3C(F)(F)F)c2n1 | 5.86
* Oc1ccc2nc(Cl)n(C3CCCCC3)c2n1 | 7.12

---

target: GPR81 (Homo sapiens, UniProt Q9BXC0); construct: expressed in transfected cells; host or cells: CHO-K1 (ATCC CCL-61), recombinant, stably transfected; assay: HTRF assay for direct cAMP measurement; type: cell-based; details: CHO-K1 cells stably transfected with GPR81, forskolin-stimulated cAMP
As shown below, each of these molecules has a reported EC50 value.
quantity-kind: EC50 (nM)

* Nc1nc2ccc(O)nc2n1-c1ccccc1 | 1050
* Cc1c(F)cccc1-n1c(N)nc2ccc(O)nc21 | 2330
* Oc1ccc2ncn(C3CCCCCC3)c2n1 | 350
* Oc1ccc2ncn(-c3cccc(Cl)c3F)c2n1 | 2760
